Where do these numbers come from? They come from patent US20250195685A1.

Biological target: T1, human CD8αα homodimer, recombinant protein (Acro Biosystems) (human, UniProt P01732 22-182)
T1 construct: also called CD8αα antigen; biotinylated CD8α recombinant protein (CDA-H82E3)
T1 sequence (P01732 22-182 limits assumed): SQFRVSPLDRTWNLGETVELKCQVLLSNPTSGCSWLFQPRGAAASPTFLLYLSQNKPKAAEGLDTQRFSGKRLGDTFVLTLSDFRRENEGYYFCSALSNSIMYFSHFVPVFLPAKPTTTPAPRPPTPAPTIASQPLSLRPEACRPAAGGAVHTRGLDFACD
Assay: BLI kinetic assay, engineered F(ab') fragment
Procedure: The global fitting was performed with a 1:1 fitting model using GatorOne software as described below. Biolayer interferometry kinetic assays were performed using a GatorBio Gator Plus BLI system. Kinetic buffer containing PBS plus 0.1% Tween 20 and 0.2% BSA was used for calculating the baseline. […]
property_measured: kon (M⁻¹ s⁻¹)

CBD1033.37 disulfide-engineered F(ab') analog (IgG1-derived) (Fab, V domains shown, Engineered CH1-F174C / CK-S162C interchain disulfide; native disulfide removed; also called .37 design) VH: QVQLVQSGAEVKKPGASVKVSCKASRYTFTDYNLHWVRQAPGQGLEWMGFIYPYNGGTGYAQKFQGRVTMTVDTSTSTAYMELSSLRSEDTAVYYCARDHRYNEGVSFDYWGQGTTVTVSS VL: DIQLTQSPSSLSASVGDRATITCRASESVDGFGNSFMNWYQQKPGKAPKLLIYLASNLESGVPSRFSGSGSGTDFTLTISSVQPEDFATYYCQQNNEDPYTFGQGTKLEIKR; 15600
CBD1033.42 disulfide-engineered F(ab') analog (IgG1, truncated P240) (Fab, V domains shown, also called .42 design) VH: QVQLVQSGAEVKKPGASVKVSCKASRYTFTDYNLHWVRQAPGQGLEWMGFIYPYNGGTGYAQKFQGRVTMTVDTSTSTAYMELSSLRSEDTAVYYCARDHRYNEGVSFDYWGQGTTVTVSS VL: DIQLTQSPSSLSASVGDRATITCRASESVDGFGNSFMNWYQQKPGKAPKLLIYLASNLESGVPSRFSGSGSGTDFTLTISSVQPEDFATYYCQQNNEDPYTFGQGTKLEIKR; 12600
CBD1033.44 disulfide-engineered F(ab') analog (IgG1, truncated T238) (Fab, V domains shown, also called .44 design) VH: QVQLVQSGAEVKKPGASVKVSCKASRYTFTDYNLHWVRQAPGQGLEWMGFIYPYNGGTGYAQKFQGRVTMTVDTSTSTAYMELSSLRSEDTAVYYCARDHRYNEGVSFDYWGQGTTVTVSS VL: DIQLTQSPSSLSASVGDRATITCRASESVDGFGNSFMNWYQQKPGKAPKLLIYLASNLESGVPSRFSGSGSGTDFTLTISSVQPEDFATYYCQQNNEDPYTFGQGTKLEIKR; 12300
CBD1033.45 disulfide-engineered F(ab') analog (IgG1, truncated T238, C233S) (Fab, V domains shown, also called .45 design) VH: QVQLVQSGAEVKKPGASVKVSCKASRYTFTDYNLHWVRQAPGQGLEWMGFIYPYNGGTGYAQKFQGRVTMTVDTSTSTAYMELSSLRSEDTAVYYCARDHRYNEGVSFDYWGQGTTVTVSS VL: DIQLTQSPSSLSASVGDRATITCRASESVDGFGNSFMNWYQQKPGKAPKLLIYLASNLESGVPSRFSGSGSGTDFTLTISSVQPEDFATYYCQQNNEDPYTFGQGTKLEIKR; 13000
